Assignment: determine reported % Remaining of Initial, 0 min for the given compounds.
Test: in vitro
Conditions: male, Sprague-Dawley, rat, microsomes, 0 h, 1 μM
Answers are plain numbers, in %.

{"compound": "CCCCCCCCCCCCCCCC(=O)NCCOC(=O)CCC(=O)OCC(COC(=O)CCC)OC(=O)CCC (stereo not shown) [Compound I-11]", "result-unit": "%", "% Remaining of Initial, 0 min": 100}

Need % Remaining of Initial, 0 min for each of these compounds.
1. CCCCCCCCCCCCCCCC(=O)NCCOC(=O)CCC(=O)OCC(COC(=O)CCCCCCC)OC(=O)CCCCCCC (stereo not shown) [Compound I-3, PEA-Succinate-Glycerol-Di-Caprylic]
2. CC/C=C\C/C=C\C/C=C\C/C=C\C/C=C\CCCC(=O)OCCNC(=O)CCCCCCCCCCCCCCC [Compound I-5]
3. CCCCCCCCCCCCCCCC(=O)NCCOC(=O)CCC(=O)OCC(O)CO (stereo not shown) [Compound I-9]
4. CCCCC/C=C\C/C=C\CCCCCCCC(=O)OCCNC(=O)CCCCCCCCCCCCCCC [Compound I-6]
5. CCCCCCCCCCCCCCCC(=O)NCCOC(=O)CCC [Compound I-2]
6. CCCCCCCCCCCCCCCC(=O)NCCOC(=O)CCC(=O)OC[C@H]1O[C@@](CO)(O[C@H]2O[C@H](CO)[C@@H](O)[C@H](O)[C@H]2O)[C@@H](O)[C@@H]1O [Compound I-7]

1: 100; 2: 100; 3: 100; 4: 100; 5: 100; 6: 100

* * *

Assignment: determine reported % Remaining of Initial (n = 1) for the given compounds.
Test: Simulated intestinal fluid (SIF) stability in the presence of various enzymes
Assay type: in vitro ADME
Conditions: SIF + Elastase, 60 min, 1 μM
Answers are plain numbers, in %.

Need % Remaining of Initial (n = 1) for each of these compounds.
1. CCCCCCCCCCCCCCCC(=O)NCCOC(=O)CCC(=O)OCC(O)CO (stereo not shown)
2. CCCCCCCCCCCCCCCC(=O)NCCOC(=O)CCC(=O)OCC(COC(=O)CCCCCCC)OC(=O)CCCCCCC (stereo not shown) [Compound I-3, PEA-Succinate-Glycerol-Di-Caprylic]
3. CCCCC/C=C\C/C=C\CCCCCCCC(=O)OCCNC(=O)CCCCCCCCCCCCCCC

10
44
64

Reported % Remaining of Initial (n = 1) for CCCCCCCCCCCCCCCC(=O)NCCOC(=O)CCC(=O)OC[C@H]1O[C@@](CO)(O[C@H]2O[C@H](CO)[C@@H](O)[C@H](O)[C@H]2O)[C@@H](O)[C@@H]1O : what is it?
3.8

* * *

Experiment: Intestinal S9 fraction stability, dog
Settings: male, Beagle, dog, s9, Half-life (min), control compound, dog intestinal S9 fraction
Method: Reaction mixture, minus cofactors, was prepared as described below. Test article was added into the reaction mixture at a final concentration of 1 μM. […] Halflives were calculated using GraphPad software, fitting to a single-phase exponential decay equation. Reaction mixture, minus cofactors, was prepared as described below. […] Halflives were calculated using GraphPad software, fitting to a single-phase exponential decay equation. […]
readout-label: half-life

Reported half-life for C[C@]12CC[C@H]3[C@@H](CCC4=CC(=O)CC[C@@]43C)[C@@H]1CC[C@@H]2O [Testosterone, testosterone, reference compound] : what is it?
> 1 h

* * *

Test: Simulated intestinal fluid (SIF) stability in the presence of various enzymes
Type: in vitro ADME
Conditions: SIF + Trypsin, 30 min, 1 μM
readout-label: % Remaining of Initial (n = 1) (%)
Give bare numbers, in %.

{"compound": "CCCCC/C=C\\C/C=C\\CCCCCCCC(=O)OCC(COC(=O)CCC(=O)OCCNC(=O)CCCCCCCCCCCCCCC)OC(=O)CCCCCCC/C=C\\C/C=C\\CCCCC (stereo not shown)", "readout-label": "% Remaining of Initial (n = 1)", "result-number": 70}
{"compound": "CCCCCCCCCCCCCCCC(=O)NCCOC(=O)CCC", "readout-label": "% Remaining of Initial (n = 1)", "result-number": 72}
{"compound": "CCCCCCCCCCCCCCCC(=O)NCCOC(=O)CCC(=O)OC[C@H]1O[C@@](CO)(O[C@H]2O[C@H](CO)[C@@H](O)[C@H](O)[C@H]2O)[C@@H](O)[C@@H]1O", "readout-label": "% Remaining of Initial (n = 1)", "result-number": 44}

Reported % Remaining of Initial (n = 1) for CCCCCCCCCCCCCCCC(=O)NCCOC(=O)CCC(=O)OCC(COC(=O)CCC)OC(=O)CCC (stereo not shown) : what is it?
62

* * *

Assignment: determine reported % Remaining of Initial (n = 1) for the given compounds.
Assay: Simulated intestinal fluid (SIF) stability in the presence of various enzymes
Type: in vitro ADME
Details: SIF + Pancreatin, 30 min, 1 μM
One number for each entry, in %.

{"compound": "CCCCC/C=C\\C/C=C\\CCCCCCCC(=O)OCCNC(=O)CCCCCCCCCCCCCCC", "result-unit": "%", "% Remaining of Initial (n = 1)": 11}
{"compound": "CCCCC/C=C\\C/C=C\\CCCCCCCC(=O)OCC(COC(=O)CCC(=O)OCCNC(=O)CCCCCCCCCCCCCCC)OC(=O)CCCCCCC/C=C\\C/C=C\\CCCCC (centres unmarked)", "result-unit": "%", "% Remaining of Initial (n = 1)": 3.7}
{"compound": "CCCCCCCCCCCCCCCC(=O)NCCOC(=O)CCC(=O)OC[C@H]1O[C@@](CO)(O[C@H]2O[C@H](CO)[C@@H](O)[C@H](O)[C@H]2O)[C@@H](O)[C@@H]1O", "result-unit": "%", "% Remaining of Initial (n = 1)": 19}
{"compound": "CCCCCCCCCCCCCCCC(=O)NCCOC(=O)CCC(=O)OCC(O)CO (centres unmarked)", "result-unit": "%", "% Remaining of Initial (n = 1)": 34}

Then this compound:
Reported % Remaining of Initial (n = 1) for CCCCCCCCCCCCCCCC(=O)NCCOC(=O)CCC : what is it?
91

* * *

Experiment: in vitro
Details: both, human, s9, Half-life
Assignment: determine reported half-life at 1 μM for the given molecules.

{"molecule": "CCCCC/C=C\\C/C=C\\CCCCCCCC(=O)OCC(COC(=O)CCC(=O)OCCNC(=O)CCCCCCCCCCCCCCC)OC(=O)CCCCCCC/C=C\\C/C=C\\CCCCC (stereo not shown) [Compound I-13]", "result": "> 60 min"}
{"molecule": "CCCCCCCCCCCCCCCC(=O)NCCOC(=O)CCC(=O)OCC(O)CO (stereo not shown) [Compound I-9]", "result": "< 10 min"}
{"molecule": "CCCCCCCCCCCCCCCC(=O)NCCOC(=O)CCC(=O)OC(COC(=O)CCC)COC(=O)CCC [Compound I-16]", "result": "< 10 min"}

Reported half-life at 1 μM for CCCCCCCCCCCCCCCC(=O)NCCOC(=O)CCC(=O)OC(CO)CO [Compound I-8] : what is it?
< 10 min

* * *

Test: Pharmacokinetics of PEA after intravenous administration in male Sprague-Dawley rats
Type: in vivo, Sprague-Dawley rat
Details: male, Sprague-Dawley, rat, in vivo, iv, 1 mg/kg, Vss (average volume of distribution), Mean
Protocol: Rats were housed one per cage. […] Each study group was dosing in triplicate. Samples were maintained chilled throughout processing. Clearance (CL) was calculated from dose/AUC.
readout-label: Vd

Reported Vd for CCCCCCCCCCCCCCCC(=O)NCCO [PEA, palmitoylethanolamide] : what is it?
9.12 L/kg

* * *

Experiment: Liver microsomal stability, mouse
Details: male, CD-1, mouse, microsomes, Half-life, Control Compound; Mouse liver microsomes
Protocol: Reaction mixture, minus cofactors, was prepared as described below. Test article was added into the reaction mixture at a final concentration of 1 μM. […] Half-lives were calculated using GraphPad software, fitting to a single-phase exponential decay equation. Reaction mixture, minus cofactors, was prepared as described below. […] Half-lives were calculated using GraphPad software, fitting to a single-phase exponential decay equation. […]
readout-label: half-life (min)
One number for each entry, in min.

Reported half-life for C[C@]12CC[C@H]3[C@@H](CCC4=CC(=O)CC[C@@]43C)[C@@H]1CC[C@@H]2O [Testosterone, testosterone, reference compound] : what is it?
3.1

* * *

Assay: Microsome/S9 fraction control (reaction mixture without microsomal proteins)
Assay type: in vitro ADME
Settings: microsome/S9 reaction mixture without microsomal proteins; no microsomal proteins, pH 7.4, 2 μM
readout-label: half-life at 2 μM

Reported half-life at 2 μM for CCCCCCCCCCCCCCCC(=O)NCCOC(=O)CCC(=O)OCC(O)CO (stereo not shown) : what is it?
> 1 h

* * *

Experiment: in vitro
Settings: male, Beagle, dog, s9, Half-life
readout-label: half-life at 1 μM

{"chemical-smiles": "CCCCCCCCCCCCCCCC(=O)NCCOC(=O)CCC(=O)OC(CO)CO", "half-life at 1 μM": "< 10 min"}

Then this compound:
Reported half-life at 1 μM for CCCCCCCCCCCCCCCC(=O)NCCOC(=O)CCC(=O)OC(COC(=O)CCC)COC(=O)CCC : what is it?
< 10 min
